Target Of Assay: D(1A) dopamine receptor (Homo sapiens) (UniProt P21728)
Sequence (P21728 whole entry): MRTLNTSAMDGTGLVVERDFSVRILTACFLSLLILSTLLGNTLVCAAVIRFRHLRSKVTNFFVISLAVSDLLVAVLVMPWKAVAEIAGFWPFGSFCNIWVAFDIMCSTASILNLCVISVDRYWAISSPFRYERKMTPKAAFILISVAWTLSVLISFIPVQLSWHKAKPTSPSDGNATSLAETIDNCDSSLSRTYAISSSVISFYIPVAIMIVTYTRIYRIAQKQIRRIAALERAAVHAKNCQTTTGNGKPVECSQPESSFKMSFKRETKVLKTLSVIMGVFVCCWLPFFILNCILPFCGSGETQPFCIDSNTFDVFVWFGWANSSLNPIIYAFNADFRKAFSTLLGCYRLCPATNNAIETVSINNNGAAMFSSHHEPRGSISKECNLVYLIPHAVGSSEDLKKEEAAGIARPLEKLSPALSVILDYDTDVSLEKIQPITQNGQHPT
Condition Set: Compound concentration 10 µM
Description: PDSP Primary Binding target: DRD1 - Compounds are tested at 10 uM concentration, plate are incubated at room temperature in the dark for 90 minutes. Reaction are stopped by vacuum filtration onto 0.3% polyethyleneimine soaked filter mats using Filtermate harvester. Scintilation cocktail is then melted onto microwave-dried filters on a hot plate and the radio activity is counted in Microbia counter.
Assay Readout: inhibition (%)
Numbers only, in %.

{"columns": ["Compound", "Target Of Assay", "Assay Readout", "Reported Value"],
 "data": [
  ["CCCSc1nc(N[C@@H]2C[C@H]2c2ccc(F)c(F)c2)c2nnn([C@@H]3C[C@H](OCCO)[C@@H](O)[C@H]3O)c2n1", "D(1A) dopamine receptor (Homo sapiens) (UniProt P21728)", "inhibition", 24],
  ["CC(C)NCC(O)COc1cccc2ccccc12 (stereo not given)", "D(1A) dopamine receptor (Homo sapiens) (UniProt P21728)", "inhibition", 4.93],
  ["CC(C)NCC(O)c1ccc(N)c(C#N)c1 (stereo not given)", "D(1A) dopamine receptor (Homo sapiens) (UniProt P21728)", "inhibition", -2.82],
  ["N#Cc1ccc2[nH]cc(CCCCN3CCN(c4ccc5oc(C(N)=O)cc5c4)CC3)c2c1", "D(1A) dopamine receptor (Homo sapiens) (UniProt P21728)", "inhibition", 22.6],
  ["COc1ccc(C2(O)OC(=O)C(c3ccc4c(c3)OCO4)=C2Cc2cc(OC)c(OC)c(OC)c2)cc1 (stereo not given)", "D(1A) dopamine receptor (Homo sapiens) (UniProt P21728)", "inhibition", -7.61]
]}

Hey, quick one: what's inhibition for each of these?
1. COc1cc2c(CCNC(C)=O)c[nH]c2cc1Cl
2. NC(=O)[C@@H]1CCCN1C(=O)[C@H](Cc1c[nH]cn1)NC(=O)[C@@H]1CCC(=O)N1

[5.8, -1.35]

Hey, quick one: what's inhibition for each of these?
1. CNC[C@H](O)c1cccc(O)c1
2. CCc1cc2c(c(CC)n1)CCC(=O)N2Cc1ccc(-c2ccccc2-c2nnn[nH]2)cc1
3. Cc1cccc([C@H](C)c2c[nH]cn2)c1C

1. 11.1
2. -4.14
3. -3.69

* * *

Target Of Assay: Histamine H3 receptor (Homo sapiens)
Condition Set: Compound concentration 10 µM
Description: PDSP Primary Binding target: HRH3 - Compounds are tested at 10 uM concentration, plate are incubated at room temperature in the dark for 90 minutes. Reaction are stopped by vacuum filtration onto 0.3% polyethyleneimine soaked filter mats using Filtermate harvester. Scintilation cocktail is then melted onto microwave-dried filters on a hot plate and the radio activity is counted in Microbia counter.
Assay Readout: inhibition (%)
One number for each entry, in %.

Example cases with answers are listed next.
{"columns": ["Compound", "inhibition, %"],
 "data": [
  ["COC(=O)C1=C(C)NC(C)=C(C(=O)OCCCN2CCC(c3ccccc3)(c3ccccc3)CC2)[C@H]1c1cccc([N+](=O)[O-])c1", 62.2],
  ["CN1CCC(C(=O)c2cccc(NC(=O)c3c(F)cc(F)cc3F)n2)CC1", 3.79],
  ["CCc1nn(CCCN2CCN(c3cccc(Cl)c3)CC2)c(=O)n1CCOc1ccccc1", -2.65],
  ["CCCCCCCCCCCCC/C=C/[C@@H](O)[C@@H](N)COP(=O)(O)O", 6.7],
  ["Cc1csc2c(N[C@@H](C)CN3CCN(S(=O)(=O)c4ccc(Cl)c(Cl)c4)CC3)ncnc12", 2.97]
]}

Hey, quick one: what's inhibition for each of these?
1. Cc1cn2cc(CC(=O)N3CCC4(CC3)CN(Cc3ccc(-n5nccn5)cc3Cl)C4)nc2s1
2. COc1ccc(/C=C/CCCCOc2ccc(C(=O)c3cccc(C(=O)O)c3)cc2CCC(=O)O)cc1
3. Oc1ccc2c3c1O[C@H]1c4[nH]c5c(c4C[C@@]4(O)[C@@H](C2)N(CC2CC2)CC[C@]314)C[C@@]1(O)[C@H]2Cc3ccc(O)c4c3[C@@]1(CCN2CC1CC1)[C@H]5O4
4. Cc1nc(C#Cc2ccnc(Cl)c2)c(C)n1-c1ccc(OC(F)(F)F)cc1
5. c1ccc(N2CCN(Cc3nc4ccccc4[nH]3)CC2)nc1

[3.15, 10.8, 6.5, 0.66, 0.89]

Hey, quick one: what's inhibition for each of these?
1. Nc1nc2c(c(N3CCNCC3)n1)CCC1=C2[C@@H]2CCCC[C@@H]2O1
2. CCCCN(CC)c1nc(C)nc2c1c(C)cn2-c1c(C)cc(C)cc1C
3. CCOC(=O)c1c(C)[nH]c2ccc3c(c12)CN1CCc2cc(OC)ccc2C1O3 (stereo not drawn)
4. COc1cccc([C@@H](C)NCCCc2ccccc2Cl)c1
5. CC1=C2C[C@H]3[C@@H](CC=C4C[C@@H](O)CC[C@@]43C)[C@@H]2CC[C@]12O[C@@H]1C[C@H](C)CN[C@H]1[C@H]2C
6. COC(=O)[C@H]1[C@H]2C[C@H]3c4[nH]c5ccccc5c4CCN3C[C@H]2CC[C@@H]1O
7. Cc1ccccc1C(=O)Nc1ccc(C(=O)N2CCCC(O)c3cc(Cl)ccc32)c(C)c1 (stereo not drawn)
8. CC[C@@H]1CN2C(=O)N(C)c3nc(-c4ccccc4)[nH]c3C2=N1

1: 34.4; 2: -0.29; 3: -2.82; 4: 26.7; 5: 32.2; 6: 7.16; 7: 6.39; 8: -5.22

* * *

Target Of Assay: Mu-type opioid receptor (Homo sapiens) (UniProt P35372)
Sequence (P35372 whole entry): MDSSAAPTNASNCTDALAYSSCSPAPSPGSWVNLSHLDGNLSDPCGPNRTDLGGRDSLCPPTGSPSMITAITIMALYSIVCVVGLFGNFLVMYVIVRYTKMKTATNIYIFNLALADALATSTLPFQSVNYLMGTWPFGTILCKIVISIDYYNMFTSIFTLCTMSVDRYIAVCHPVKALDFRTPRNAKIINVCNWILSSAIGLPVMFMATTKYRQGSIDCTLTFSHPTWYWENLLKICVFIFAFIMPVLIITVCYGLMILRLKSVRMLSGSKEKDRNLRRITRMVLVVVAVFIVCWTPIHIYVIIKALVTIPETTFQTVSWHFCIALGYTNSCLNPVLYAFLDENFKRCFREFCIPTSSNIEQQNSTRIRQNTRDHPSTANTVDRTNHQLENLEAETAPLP
Condition Set: Compound concentration 10 µM
Description: PDSP Primary Binding target: OPRM1 - Compounds are tested at 10 uM concentration, plate are incubated at room temperature in the dark for 90 minutes. Reaction are stopped by vacuum filtration onto 0.3% polyethyleneimine soaked filter mats using Filtermate harvester. Scintilation cocktail is then melted onto microwave-dried filters on a hot plate and the radio activity is counted in Microbia counter.
Assay Readout: inhibition

Example cases with answers are listed next.
{"columns": ["Compound", "inhibition"],
 "data": [
  ["COc1cccc([C@@H](C)NCCCc2ccccc2Cl)c1", "57.2%"],
  ["Cc1cc(C)cc(C(=O)N(C)[C@H](Cc2ccc(-c3ccccc3)cc2)C(=O)N[C@@H](Cc2c[nH]c3ccccc23)C(=O)O)c1", "-1.4%"],
  ["CCc1nn(CCCN2CCN(c3cccc(Cl)c3)CC2)c(=O)n1CCOc1ccccc1", "32.2%"],
  ["C[C@H](CO)Nc1nc(SCc2cccc(Cl)c2F)nc2[nH]c(=O)sc12", "10.8%"],
  ["Cc1ccc2c(c1)c1c(n2CCc2ccc(C)nc2)CCN(C)C1", "2.42%"],
  ["C[C@@H](NCCCc1cccc(C(F)(F)F)c1)c1cccc2ccccc12", "78.3%"],
  ["Clc1ccc(CCCOCCCN2CCCCC2)cc1", "3.99%"],
  ["O=C1N/C(=N/c2ccccc2F)S/C1=C\\c1ccc(C(=O)O)cc1", "56%"],
  ["CC(C)(N)C(=O)N[C@H](COCc1ccccc1)C(=O)N1CCC2(CC1)CN(S(C)(=O)=O)c1ccccc12", "12.8%"],
  ["CC(C)[C@H](CO)Nc1nc(Nc2cccc(Cl)c2)c2ncn(C(C)C)c2n1", "9.06%"]
]}

Hey, quick one: what's inhibition for each of these?
1. O=C(O)CC/C=C\C[C@@H]1CO[C@H](c2ccccc2Cl)O[C@@H]1c1ccccc1O
2. Cc1cc([C@@H](C)Nc2cccc(-c3cc(C)c(C(=O)N[C@@H](C)C(=O)O)c(C)c3)c2)ccc1Cl
3. CN1C2CCC1CC(OC(c1ccc(F)cc1)c1ccc(F)cc1)C2 (centres undefined)

["8.82%", "16.5%", "59.1%"]

Hey, quick one: what's inhibition for each of these?
1. COc1ccccc1CN[C@H]1C2CCN(CC2)[C@H]1C(c1ccccc1)c1ccccc1
2. CCc1cc(C(C)=O)c(O)cc1OCCCCCC(C)(C)c1nn[nH]n1
3. N#Cc1ccc2[nH]cc(CCCCN3CCN(c4ccc5oc(C(N)=O)cc5c4)CC3)c2c1
4. COc1ccc(C2(O)OC(=O)C(c3ccc4c(c3)OCO4)=C2Cc2cc(OC)c(OC)c(OC)c2)cc1 (centres undefined)
5. COc1cc2nc(N3CCN(C(=O)c4ccco4)CC3)nc(N)c2cc1OC

["9.53%", "8.2%", "62.7%", "-4.54%", "50%"]

* * *

Target Of Assay: Alpha-2C adrenergic receptor (Homo sapiens)
Condition Set: Compound concentration 10 µM
Description: PDSP Primary Binding target: ADRA2C - Compounds are tested at 10 uM concentration, plate are incubated at room temperature in the dark for 90 minutes. Reaction are stopped by vacuum filtration onto 0.3% polyethyleneimine soaked filter mats using Filtermate harvester. Scintilation cocktail is then melted onto microwave-dried filters on a hot plate and the radio activity is counted in Microbia counter.
Parameter threshold = 20%. Response is true when inhibition meets or exceeds it, else false.

{"columns": ["Compound", "Class Assignment"],
 "data": [
  ["CC(C)NCC(O)COc1ccc(CCOCC2CC2)cc1 (centres undefined)", "false"],
  ["COc1cccc([C@@H](C)NCCCc2ccccc2Cl)c1", "true"],
  ["CN(C)C(=O)C(CCN1CCC(O)(c2ccc(Cl)cc2)CC1)(c1ccccc1)c1ccccc1", "true"],
  ["Oc1ccc2c3c1O[C@H]1c4[nH]c5c(c4C[C@@]4(O)[C@@H](C2)N(CC2CC2)CC[C@]314)C[C@@]1(O)[C@H]2Cc3ccc(O)c4c3[C@@]1(CCN2CC1CC1)[C@H]5O4", "false"],
  ["COC(=O)[C@H]1[C@H]2C[C@H]3c4[nH]c5ccccc5c4CCN3C[C@H]2CC[C@@H]1O", "true"]
]}

Would you say C=CCN1C[C@H](C)N([C@H](c2ccc(C(=O)N(CC)CC)cc2)c2cccc(O)c2)C[C@H]1C shows inhibition at minimum 20%?
true

Would you say COc1ccc(/C=C/CCCCOc2ccc(C(=O)c3cccc(C(=O)O)c3)cc2CCC(=O)O)cc1 shows inhibition at minimum 20%?
false

Would you say CC(C)(N)C(=O)N[C@H](COCc1ccccc1)C(=O)N1CCC2(CC1)CN(S(C)(=O)=O)c1ccccc12 shows inhibition at minimum 20%?
false

Would you say CCN(CC)CCCCC1CCN(CC(=O)N2c3ccccc3C(=O)Nc3cccnc32)CC1 shows inhibition at minimum 20%?
false

These data points were gathered from ChEMBL document CHEMBL5442219.
